- measured-on: T1, Human Serum Albumin (human, UniProt P02768 25-609)
- T1 construct: mature; Bought purified serum protein; Immobilised on CM5 chips; also called HSA; human SA
- experimental-protocol: SPR (BIAcore), purified dAb
pKd: −log10 of the molar value.
property: pKd

P: DOM7h-14-74 (other, pDOM5 myc tag not included) VL: DIQMTQSPSSLSASVGDRVTITCRASQWIGSQLSWYQQKPGKAPKLLIMWRSSLQSGVPSRFSGSGSGTDFTLTISSLQPEDFATYYCAQGLRHPKTYGKGTKVENKW
Q: DOM7h-14-56 (other, pDOM5 myc tag not included) VL: DIQMTQSPSSLSASVGDRVTITCRASQWIGSQLSWYQQKPGKAPMLLIMWSSSLQSGVPSRFSGSGSGTDFTLTISSLQPEDFATYYCAQGLRHPKTFGQGTKVEIKW
// returns P or Q , whichever has the lower pKd Please identify the chosen entry by its label.
Q

I: DOM7h-14-116 (other, pDOM5 myc tag not included) VL: DIQMTQSPSSLSASVGDRVTITCRASQWIGSQLSWYQQKPGKAPKLLIMWRSALQSGVPSRFSGSGSGTDFTLTISSLQPEDFATYYCAQGLRYPKTFGQGTKVEIKW
II: DOM7h-14-82 (other, pDOM5 myc tag not included) VL: DIQMTQSPSSLSASVGDRVTITCRASQWIGSQLSWYQQKPGKAPKLLIMWRSSLQSGVPSRFSGSGSGTDFTLTISSLQPEDFATYYCAQGMRHPKTFGQGTKVEIKW
// returns I or II , whichever has the lower pKd Please identify the chosen entry by its label.
II
(II: 7.81, I: 8.15)
